# STUDY TARGET: flag-tagged HIF1α (AA 786-826) / His6-tagged p300 (AA 323-423) complex (Homo sapiens)
# Construct: His6-tagged p300 (AA 323-423); made in house; host or cells: E. coli (pETDuet vector)
# EXPERIMENTAL PROTOCOL: HIF1α p300 displacement assay (TR FRET, +CHAPS)
# Format: binding
# CONDITION PARAMETERS: read-out: IC50 (nM) (HIF1α_p300 Displacement + CHAPS)
Bridge positions count the residues as written; N and C are the ends. Square brackets hold non-standard residues; d marks the D form. Peptide text beside a SMILES is read from it. R8 = C=CCCCCCC[C@@](C)(N)C(=O)O; S5 = C=CCCC[C@](C)(N)C(=O)O; Nle = CCCC[C@H](N)C(=O)O
Reported IC50 by item:

COMPOUND	IC50
CCCC[C@@H]1NC(=O)[C@H](CC(C)C)NC(=O)[C@H](CC(N)=O)NC(=O)[C@@](C)(NC(=O)[C@H](CCC(=O)O)NC(=O)[C@H](CC(=O)O)NC(=O)[C@@H](NC(=O)[C@H](Cc2ccccc2)NC(C)=O)[C@@H](C)CC)CCCC=CCCCC2(CCCC=CCCC[C@](C)(C(=O)N[C@@H](CCCC)C(=O)N[C@@H](C)C(=O)N[C@@H](CC(C)C)C(N)=O)NC(=O)[C@H]([C@@H](C)CC)NC(=O)[C@H](C(C)C)NC(=O)[C@H](CC(C)C)NC2=O)NC1=O (some centres unmarked)	> 700 nM
CCCC[C@H](NC(=O)[C@H](CCC(=O)O)NC(=O)[C@@H](NC(=O)[C@@H](NC(=O)[C@H](CC(C)C)NC(=O)[C@]1(C)CCCC=CCCC[C@](C)(NC(=O)[C@H](CCC(=O)O)NC(=O)[C@H](CC(=O)O)NC(=O)[C@@H](NC(=O)[C@H](Cc2ccccc2)NC(C)=O)[C@@H](C)CC)C(=O)N[C@@H](C(C)C)C(=O)N[C@@H](CC(C)C)C(=O)N[C@@H](C)C(=O)N1)C(C)C)[C@@H](C)CC)C(=O)N[C@@H](C)C(=O)N[C@@H](CC(C)C)C(N)=O [SP-152] (Ac-FIDE[S5]VLA[S5]LVIE[Nle]AL-NH2; staple 5-9)	400 to 700 nM
CC[C@H](C)[C@H](NC(=O)[C@H](Cc1ccccc1)NC(C)=O)C(=O)N[C@@H](CC(=O)O)C(=O)N[C@@H](CCC(N)=O)C(=O)N[C@@H](CCC(=O)O)C(=O)N[C@H](C(=O)N[C@@H](CC(C)C)C(=O)N[C@@H](CCSC)C(=O)N[C@@]1(C)CCCC=CCCC[C@@](C)(C(=O)N[C@@H](CCSC)C(=O)N[C@@H](C)C(=O)N[C@@H](CC(C)C)C(N)=O)NC(=O)[C@H]([C@@H](C)CC)NC(=O)[C@H](C(C)C)NC(=O)[C@H](CC(C)C)NC1=O)C(C)C [SP-233] (Ac-FIDQEVLM[S5]LVI[S5]MAL-NH2; staple 9-13)	400 to 700 nM
CCCC[C@H](NC(=O)[C@H](C)NC(=O)[C@]1(C)CCCC=CCCCCCC[C@@](C)(NC(=O)[C@H](CCC(=O)O)NC(=O)[C@H](CC(=O)O)NC(=O)[C@@H](NC(=O)[C@H](Cc2ccccc2)NC(C)=O)[C@@H](C)CC)C(=O)N[C@@H](C(C)C)C(=O)N[C@@H](CC(C)C)C(=O)N[C@@H](CCCC)C(=O)N[C@@H](CO)C(=O)N[C@@H](CC(C)C)C(=O)N[C@@H](C(C)C)C(=O)N1)C(=O)N[C@@H](C)C(=O)N[C@@H](CC(C)C)C(N)=O [SP-196] (Ac-FIDE[R8]VL[Nle]SLV[S5]A[Nle]AL-NH2; staple 5-12)	200 to 400 nM
CCCC[C@H](NC(=O)[C@H](CCC(=O)O)NC(=O)[C@@H](NC(=O)[C@@H](NC(=O)[C@H](CC(N)=O)NC(=O)[C@]1(C)CCCC=CCCC[C@](C)(NC(=O)[C@H](CCC(=O)O)NC(=O)[C@H](CC(=O)O)NC(=O)[C@@H](NC(=O)[C@H](Cc2ccccc2)NC(C)=O)[C@@H](C)CC)C(=O)N[C@@H](C(C)C)C(=O)N[C@@H](CC(C)C)C(=O)N[C@@H](CCCC)C(=O)N1)C(C)C)[C@@H](C)CC)C(=O)N[C@@H](C)C(=O)N[C@@H](CC(C)C)C(N)=O [SP-143] (Ac-FIDE[S5]VL[Nle][S5]NVIE[Nle]AL-NH2; staple 5-9)	400 to 700 nM
CCCC[C@H](NC(=O)[C@H](C)NC(=O)[C@H](CCSC)NC(=O)[C@]1(C)CCCC=CCCC[C@](C)(NC(=O)[C@H](CCSC)NC(=O)[C@H](CC(C)C)NC(=O)[C@@H](NC(=O)[C@H](CCC(=O)O)NC(=O)[C@H](CCC(=O)O)NC(=O)[C@H](CC(=O)O)NC(=O)[C@@H](NC(=O)[C@H](Cc2ccccc2)NC(C)=O)[C@@H](C)CC)C(C)C)C(=O)N[C@@H](CC(C)C)C(=O)N[C@@H](C(C)C)C(=O)N[C@@H]([C@@H](C)CC)C(=O)N1)C(N)=O [SP-227] (Ac-FIDEEVLM[S5]LVI[S5]MA[Nle]-NH2; staple 9-13)	> 700 nM
CCCC[C@H](NC(=O)[C@H](CCC(=O)O)NC(=O)[C@@H](NC(=O)[C@@H](NC(=O)[C@H](CC(C)C)NC(=O)[C@]1(C)CCCC=CCCC[C@](C)(NC(=O)[C@H](CCC(=O)O)NC(=O)[C@H](CC(=O)O)NC(=O)[C@H](CO)NC(=O)[C@H](Cc2ccccc2)NC(C)=O)C(=O)N[C@@H](C(C)C)C(=O)N[C@@H](CC(C)C)C(=O)N[C@@H](CCCC)C(=O)N1)C(C)C)[C@@H](C)CC)C(=O)N[C@@H](C)C(=O)N[C@@H](CC(C)C)C(N)=O [SP-154] (Ac-FSDE[S5]VL[Nle][S5]LVIE[Nle]AL-NH2; staple 5-9)	200 to 400 nM
CCCC[C@@H]1NC(=O)[C@H](CC(C)C)NC(=O)[C@H](C(C)C)NC(=O)[C@@](C)(NC(=O)[C@H](CCC(=O)O)NC(=O)[C@H](CC(=O)O)NC(=O)[C@@H](NC(=O)[C@H](Cc2ccccc2)NC(C)=O)[C@@H](C)CC)CCCC=CCCCC2(CCCC=CCCC[C@](C)(C(=O)N[C@@H](CCCC)C(=O)N[C@@H](C)C(=O)N[C@@H](CC(C)C)C(N)=O)NC(=O)[C@H]([C@@H](C)CC)NC(=O)[C@H](C(C)C)NC(=O)[C@H](CCCNC(=N)N)NC2=O)NC1=O (some centres unmarked)	> 700 nM
